Assign Percent Effect to each entry below.
Target: Chromo domain-containing protein 1 (Saccharomyces cerevisiae (strain ATCC 204508 / S288c) (Baker's yeast)) (UniProt P32657)
Sequence (P32657 whole entry, the tested form may be a part): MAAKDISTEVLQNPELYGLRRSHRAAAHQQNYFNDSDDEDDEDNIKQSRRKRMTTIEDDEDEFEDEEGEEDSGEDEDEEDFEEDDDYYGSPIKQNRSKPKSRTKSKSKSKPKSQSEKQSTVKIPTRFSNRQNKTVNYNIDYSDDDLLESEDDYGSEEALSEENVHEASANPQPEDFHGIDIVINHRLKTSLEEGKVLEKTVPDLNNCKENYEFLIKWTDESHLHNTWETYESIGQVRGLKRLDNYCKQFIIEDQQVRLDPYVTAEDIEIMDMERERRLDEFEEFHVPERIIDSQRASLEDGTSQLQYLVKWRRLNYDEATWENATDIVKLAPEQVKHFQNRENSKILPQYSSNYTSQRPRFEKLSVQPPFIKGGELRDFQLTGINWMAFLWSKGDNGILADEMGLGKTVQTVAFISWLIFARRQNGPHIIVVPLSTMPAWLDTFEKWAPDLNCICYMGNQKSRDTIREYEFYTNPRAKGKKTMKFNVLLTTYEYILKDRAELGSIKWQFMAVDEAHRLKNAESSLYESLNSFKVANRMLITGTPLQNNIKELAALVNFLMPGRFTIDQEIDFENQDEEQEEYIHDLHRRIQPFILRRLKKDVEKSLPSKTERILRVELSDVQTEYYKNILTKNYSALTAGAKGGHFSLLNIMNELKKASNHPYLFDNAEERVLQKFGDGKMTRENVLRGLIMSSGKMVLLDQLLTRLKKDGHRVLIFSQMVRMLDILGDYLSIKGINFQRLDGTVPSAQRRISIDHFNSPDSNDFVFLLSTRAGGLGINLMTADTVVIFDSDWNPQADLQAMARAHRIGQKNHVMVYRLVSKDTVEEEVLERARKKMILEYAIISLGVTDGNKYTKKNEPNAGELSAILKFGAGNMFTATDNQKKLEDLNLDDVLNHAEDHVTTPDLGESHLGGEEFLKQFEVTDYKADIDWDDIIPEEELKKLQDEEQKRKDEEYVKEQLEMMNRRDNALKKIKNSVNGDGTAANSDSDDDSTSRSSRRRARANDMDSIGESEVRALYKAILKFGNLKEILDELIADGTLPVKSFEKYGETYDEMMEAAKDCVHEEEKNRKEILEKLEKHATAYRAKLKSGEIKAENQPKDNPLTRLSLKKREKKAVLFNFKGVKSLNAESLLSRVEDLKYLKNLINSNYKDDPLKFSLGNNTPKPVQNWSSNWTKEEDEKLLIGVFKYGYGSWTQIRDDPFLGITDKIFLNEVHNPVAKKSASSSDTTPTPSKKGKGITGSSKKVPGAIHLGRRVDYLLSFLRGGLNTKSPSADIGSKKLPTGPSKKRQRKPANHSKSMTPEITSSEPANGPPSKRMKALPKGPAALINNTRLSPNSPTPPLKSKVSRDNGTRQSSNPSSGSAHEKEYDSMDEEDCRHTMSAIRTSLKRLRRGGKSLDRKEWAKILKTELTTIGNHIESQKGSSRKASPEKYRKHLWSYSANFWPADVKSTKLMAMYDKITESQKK
Assay: ScCHD-1 Enzyme Inhibition Assay
Format: functional
Parameters: scale not given: in the data most compounds retested in dose-response had high values
Settings: 30 µM

Lab book: Percent Effect of Cc1ccc(C(=O)N2CCC3(CC2)NC(=O)CC3c2ccccc2)cn1 (centres undefined) noted as -2.72%

Lab note: measured Percent Effect of Cn1ncc2c1CN(Cc1cccnc1)CC2COCC1CC1 (centres undefined) was -7.87%

Percent Effect for COc1cnc(N2CCC(Oc3ccccc3OC)(C(=O)O)CC2)nc1 is -4.67%

What the record says about CC(C)C(C(=O)N1CCC(Nc2cccnn2)CC1)n1cncn1 (centres undefined) : Percent Effect is -1.75%

Record CCc1nnc2n1CCN(C(=O)COCCc1ccccc1)C2 , field Percent Effect: -2.89%

Percent Effect recorded for this compound, CCc1c(C)nc2n(c1=O)CC(C(=O)Nc1nc3c(s1)CCCC3)CS2 (centres undefined) , is -8.32%

Percent Effect in this record for c1ccc(-c2nc(CNC3CCc4ncnn4C3)co2)cc1 (centres undefined) : -7.68%

So, CC(C)c1nc(C2CCCN2Cc2ccno2)no1 (centres undefined) ? Its Percent Effect was 4.2%

Measured Percent Effect of CCS(=O)(=O)Nc1ccn(Cc2cccc(Cl)c2)n1 : 120%

Lab note: Cn1cc(CN(Cc2ccccc2)CC(O)c2cccs2)cn1 (centres undefined) gave Percent Effect of -8.54%

Lookup result for COc1ccc(-c2noc(CN3CCc4cncnc4C3)n2)cc1 ; measured Percent Effect: 25%

The compound listed as Cn1nc(CNC(=O)C2CC2)cc1C1CC1 shows Percent Effect equal to -7.39%

Reported Percent Effect for COCC1CN(C(=O)c2cccn2C)Cc2ncnn2C1 (centres undefined) was 3.71%

response.value for Cc1cnn(CC2CCCN2C(=O)c2cc3ccccc3[nH]c2=O)c1 (centres undefined) (field: Percent Effect) = -15.3%

// Percent Effect value for Cc1cc(N2CCCN(C(=O)Cc3csc(C)n3)CC2)ccn1 : -3.36%

Please fill in: Percent Effect reported for CCOC(=O)CCNC(=O)N1CCN(c2nc3ccccc3n2C)CC1 = -7.17%

Note to self: Percent Effect recorded for CCOC(=O)CCC(=O)NC(C)c1ccc(NC(=O)CC)cc1 (centres undefined) was -3.37%

Entry Fc1ccc(CN2CC[C@H]3O[C@@H](COCC4CCOCC4)CC[C@H]32)cc1 , Percent Effect reported as -7.73%

# Percent Effect of O=C(N[C@@H]1CN(c2ncccn2)[C@@H]2CCCO[C@@H]21)c1cnccn1 = -7.55%

Reported Percent Effect ( O=c1[nH]c2c(c(=O)n1C1CCCCC1)CCC2NCCc1ccccc1 (centres undefined) ) = -3.17%

Notebook: Cc1ccc(CN2CC[C@H]3[C@@H]2CCC(=O)N3CCN2CCCC2)s1 , Percent Effect read as -2.35%

The recorded Percent Effect for O=C(Nc1cccc(OCc2ccc(F)cc2)c1)C1COCCO1 (centres undefined) is -0.73%

So, O=C(CN1CCCCC1Cn1cncn1)NCc1ccccn1 (centres undefined) ? Its Percent Effect was -4.29%

Recorded result, O=C1NC2(CCN(C(=O)Cc3ccsc3)CC2)CC1c1ccncc1 (centres undefined) , Percent Effect: -9.26%
